Below is a list of entries, each paired with its recorded zone of inhibition at 5 µg/disc value.
Test system: Bacillus subtilis
Test: Antibacterial activity against Bacillus subtilis at 5 ug/disk after 24 hrs by agar-plate diffusion assay
Type: functional
Settings: read-out: IZ
Write the number in mm without appending the unit.

The observed zone of inhibition at 5 µg/disc for COc1c(Br)cc(Br)cc1Oc1c(O)cc(Br)c(Br)c1Br when tested with Bacillus subtilis stands at 10

Response field zone of inhibition at 5 µg/disc (Bacillus subtilis) for item COc1c(Br)cc(Br)c(Br)c1Oc1cc(Br)cc(Br)c1O : 10

Kindly note: Bacillus subtilis, Oc1ccccc1Oc1c(O)cc(Br)cc1Br , zone of inhibition at 5 µg/disc value reported: 10
